As a worked illustration, we turn to EC50 data collected for LHRH binding sites on human ovarian cancer cells (EFO-27).
Non-standard residues stand in square brackets, D forms with d. Residues, ends and D or L forms follow the SMILES beside them. *: point of attachment. DOTA = O=C(O)CN1CCN(CC(=O)O)CCN(CC(=O)*)CCN(CC(=O)O)CC1; Bpa = N[C@@H](Cc1ccc(C(=O)c2ccccc2)cc1)C(=O)O; d3Pal = N[C@H](Cc1cccnc1)C(=O)O; azaGly = NNC(=O)O; Sar = CNCC(=O)O
Provide the reading as a plain figure in µM.

[[record]]
molecule = "N=C(N)NCCC[C@@H](NC(=O)[C@H](Cc1c[nH]cn1)NC(=O)[C@H](CO)NC(=O)[C@H](Cc1c[nH]c2ccccc12)NC(=O)[C@H](Cc1c[nH]cn1)NC(=O)[C@@H](Cc1ccc2ccccc2c1)NC(=O)CN1CCN(CC(=O)O)CCN(CC(=O)O)CCN(CC(=O)O)CC1)C(=O)N[C@@H](Cc1c[nH]c2ccccc12)C(=O)N[C@@H](Cc1ccc(C(=O)c2ccccc2)cc1)C(=O)N1CCC[C@H]1C(=O)NNC(N)=O [BRU-2666]"
reported_measurement = 0.47

[[record]]
molecule = "CN(CC(=O)N[C@@H](Cc1c[nH]cn1)C(=O)N[C@@H](Cc1c[nH]c2ccccc12)C(=O)N[C@@H](CO)C(=O)N[C@@H](Cc1c[nH]cn1)C(=O)N[C@H](CCCNC(=N)N)C(=O)N[C@@H](Cc1c[nH]c2ccccc12)C(=O)N[C@@H](Cc1ccc(CN)cc1)C(=O)N1CCC[C@H]1C(=O)NNC(N)=O)C(=O)CN1CCN(CC(=O)O)CCN(CC(=O)O)CCN(CC(=O)O)CC1 [BRU-2760]"
reported_measurement = 3.55


Request: Query for LHRH binding sites on human ovarian cancer cells (EFO-27): what EC50 does the record show for CN(CC(=O)N[C@@H](Cc1c[nH]cn1)C(=O)N[C@@H](Cc1c[nH]c2ccccc12)C(=O)N[C@@H](CO)C(=O)N[C@@H](Cc1c[nH]cn1)C(=O)N[C@H](Cc1cccnc1)C(=O)N[C@@H](Cc1c[nH]c2ccccc12)C(=O)N[C@@H](Cc1ccc(C(=O)c2ccccc2)cc1)C(=O)N1CCC[C@H]1C(=O)NNC(N)=O)C(=O)CN1CCN(CC(=O)O)CCN(CC(=O)O)CCN(CC(=O)O)CC1 [compound 2673] ({DOTA}-[Sar]HWSH[d3Pal]W[Bpa]P[azaGly]-NH2) ?
Response: 12.3
